All figures here come from PubChem BioAssay (EPA / NIEHS).

biological target: bovine Estrogen Receptor (ER), ESR1 (gene 407238); assay: NVS_NR_bER: NovaScreen (NVS) Nuclear Receptor Binding Assay for bovine Estrogen Receptor (ER) (AID 2283345);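 also: actives lower the bound radioligand count which means they displace the ER ligand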
Inconclusive results are not listed. Activity calls are given as the source filed them. The calls were made as follows: active = hit-call score of the fitted dose curve at least 0.9, where 1 is the maximum; inconclusive = response in the unintended direction; inactive = score below 0.9.
Labels: t = active, f = inactive

> print(dat)
                                   molecule  assigned.label
1             c1ccc(B(c2ccccc2)c2ccccc2)cc1               f
2                      Oc1ccc(Nc2ccccc2)cc1               t
3       CCCCCCCCCCCCCCCC[N+](C)(C)Cc1ccccc1               f
4              CCN(CC)c1ccc2c(C)cc(=O)oc2c1               f
5  CC(Cc1ccc(O)c(O)c1)C(C)Cc1ccc(O)c(O)c1 (stereo not given)               t

---

experiment: ATG_GRE_CIS: Attagene CIS-FACTORIAL HepG2 Assay for human Glucocorticoid Response Elements (GRE) (AID 2282947); details: HepG2 GRE cis-reporter, Attagene multiplex mRNA; actives raise or lower the signal
The source made the active and inactive calls. How the source made its calls: active means hit-call score of the fitted dose curve at least 0.9, where 1 is the maximum; inactive means score below 0.9.
metric-name: outcome

> print(dat)
                                    compound  metric.name  data.value
 1                      Nc1cc(Cl)c(N)c(Cl)c1      outcome    inactive
 2  C=C(C)C(=O)OCC(F)(F)C(F)(F)C(F)(F)C(F)(F)C(F)(F)C(F)(F)C(F)(F)F      outcome    inactive
 3             O=C(O)C(F)(F)C(F)(F)OC(F)(F)F      outcome    inactive
 4    COC(=O)CCC(F)(F)C(F)(F)C(F)(F)C(F)(F)F      outcome    inactive
 5                OCCCC(F)(F)C(F)(F)C(F)(F)F      outcome    inactive
 6  O=C(O)C(F)(OC(F)(F)C(F)(OC(F)(F)C(F)(OC(F)(F)C(F)(F)C(F)(F)F)C(F)(F)F)C(F)(F)F)C(F)(F)F (stereo not drawn)      outcome    inactive
 7  CCCCCCC(C)OC(=O)CCCCC(=O)OC(C)CCCCCC (stereo not drawn)      outcome    inactive
 8  O=C(Cl)C(F)(F)C(F)(F)C(F)(F)C(F)(F)C(F)(F)C(F)(F)C(F)(F)C(F)(F)F      outcome    inactive
 9       CCCCCCCCCCCCCCCC[N+](C)(C)Cc1ccccc1      outcome    inactive
10  C#C[C@]1(O)CC[C@H]2[C@@H]3CCc4cc(OC)ccc4[C@H]3CC[C@@]21C      outcome    inactive
11                     CCCCCCOC(=O)c1ccccc1O      outcome    inactive
12            CC(C)OC(=O)c1ccccc1C(=O)OC(C)C      outcome    inactive
13              OCC(F)(F)C(F)(F)C(F)(F)C(F)F      outcome    inactive
14  C=C(C)C(=O)OCCC(F)(F)C(F)(F)C(F)(F)C(F)(F)C(F)(C(F)(F)F)C(F)(F)F      outcome    inactive
15              CCc1c(Br)c(Br)c(Br)c(Br)c1Br      outcome    inactive
16  FC(F)(F)C(F)(F)C(F)(F)C(F)(F)C(F)(F)C(F)(F)C(F)(F)C(F)(F)CCS      outcome    inactive
17  O=C(O)C(F)(OC(F)(F)C(F)(OC(F)(F)C(F)(F)C(F)(F)F)C(F)(F)F)C(F)(F)F (stereo not drawn)      outcome    inactive
18             O=S(=O)(OCCOC(F)(F)F)C(F)(F)F      outcome    inactive
19                      CCCCCCOC(=O)c1ccccc1      outcome    inactive
20              c1ccc(-c2ccccc2-c2ccccc2)cc1      outcome    inactive
21  O=P(O)(O)OCCC(F)(F)C(F)(F)C(F)(F)C(F)(F)C(F)(F)C(F)(F)F      outcome    inactive
22  OCC(F)(F)C(F)(F)C(F)(F)C(F)(F)C(F)(F)C(F)F      outcome    inactive
23      CCCCOCCOCCOC(=O)CCCCC(=O)OCCOCCOCCCC      outcome    inactive
